Target: T1, recombinant human PLVAP51-442 protein (extracellular domain, His tag removed by thrombin) (human, UniProt Q9BX97 51-442)
T1 construct: also called recombinant PLVAP protein; recombinant PLVAP
T1 sequence: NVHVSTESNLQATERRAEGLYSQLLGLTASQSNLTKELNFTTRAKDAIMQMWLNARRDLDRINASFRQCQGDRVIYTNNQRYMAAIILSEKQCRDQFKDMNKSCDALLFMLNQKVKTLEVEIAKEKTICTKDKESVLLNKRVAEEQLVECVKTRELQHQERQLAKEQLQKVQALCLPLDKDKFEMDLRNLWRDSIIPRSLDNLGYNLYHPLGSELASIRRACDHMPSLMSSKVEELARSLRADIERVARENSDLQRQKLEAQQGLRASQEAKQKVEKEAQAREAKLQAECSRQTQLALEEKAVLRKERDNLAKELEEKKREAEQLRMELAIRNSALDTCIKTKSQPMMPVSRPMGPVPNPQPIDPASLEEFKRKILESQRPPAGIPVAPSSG
Test: competition ELISA on coated recombinant PLVAP; competitor biotinylated murine KFCC-GY5
Experimental: The binding of KFCC-GY4 and KFCC-GY5 human antibody variants to recombinant PLVAP was assessed in a competition ELISA. […] The binding of the biotinylated mAb was determined by detection with streptavidin-HRP and TMB substrate. After stopping the reaction with 3M HCl, absorbance was measured at 450 nm on a Dynex Technologies MRX TC II plate reader and the binding curves of the test antibodies compared against the mouse reference standard. […]

# BINDER, IC50
data = [
    ("humanized KFCC-GY5 antibody CSR02-VH4/VK2 (antibody, human IgG4, V domains shown, also called VH4/VK2 (GY5 variant); CSR02-VH4NK2) VH: QVQLVQSGSELKKPGASVKVSCKASGYTFTSNYINWVRQAPGQGLEWIGNIYPSDGFTNYNQKFKDRVTITVDKSTSTAYMELSSLRSEDTAVYYCTRNFDVWGQGTTVTVSS VL: DVVMTQSPLSLPVTLGQPASISCRSSQSLVHSNGNTYLQWYLQKPGQSPQLLIYTVSNRFSGVPDRFSGSGSGTDFTLKISRVEAEDVGVYFCSQSTHVPFTFGQGTKLEIKR", "0.56 µg/mL"),
    ("humanized KFCC-GY5 antibody CSR02-VH5/VK3 (antibody, human IgG4, V domains shown, also called VH5/VK3 (GY5 variant); CSR02-VH5NK3) VH: QVQLVQSGSELKKPGASVKVSCKASGYTFTSNYINWVRQAPGQGLEWMGNIYPSDGFTNYNQKFKDRVTITVDKSTSTAYMELSSLRSEDTAVYYCTRNFDVWGQGTTVTVSS VL: DVVMTQSPLSLPVTLGQPASISCRSSQSLVHSNGNTYLQWYLQKPGQSPQLLIYTVSNRFSGVPDRFSGSGSGPDFTLKISRVEAEDVGVYYCSQSTHVPFTFGQGTKLEIKR", "0.41 µg/mL"),
    ("KFCC-GY5 monoclonal antibody (murine, hybridoma ATCC PTA-9964) (antibody, mouse IgG1, V domains shown, also called GY5 mAB; KFCC-GY5 mAb) VH: QVQLQQPGAELVRPGASVKLSCKASGYTFTSNYINWVKQRPGQGLEWIGNIYPSDGFTNYNQKFKDRATLTVDKSSSTAYMQLSSPTSEDSAVYYCTRNFDVWGAGTTVTVSS VL: DVVMTQTPLSLPVSLGDQASISCRSSQSLVHSNGNTYLQWYLQKPGQSPKLLIYTVSNRFSGVPDRFSGSGSGPDFTLKISRVEAEDLGVYFCSQSTHVPFTFGSGTKLEIK", "0.38 µg/mL"),
    ("humanized KFCC-GY5 antibody CSR02-VH4/VK3 (antibody, human IgG4, V domains shown, also called VH4/VK3 (GY5 variant); VH4/VK3 IgG4) VH: QVQLVQSGSELKKPGASVKVSCKASGYTFTSNYINWVRQAPGQGLEWIGNIYPSDGFTNYNQKFKDRVTITVDKSTSTAYMELSSLRSEDTAVYYCTRNFDVWGQGTTVTVSS VL: DVVMTQSPLSLPVTLGQPASISCRSSQSLVHSNGNTYLQWYLQKPGQSPQLLIYTVSNRFSGVPDRFSGSGSGPDFTLKISRVEAEDVGVYYCSQSTHVPFTFGQGTKLEIKR", "0.43 µg/mL"),
]
